# Tgt: T1, PTPRG, endogenous in H929 multiple myeloma cells (human, UniProt P23470 20-1445)
# T1 construct: Native protein on H929 cells (flow cytometry, siRNA knockdown) and in H929 lysates (IP/MS); also called phosphatase receptor type γ
# Test Name: flow cytometry, H929 + ICAM1 siRNA; None 1.06
Property Label: Cells stained (%)

1) HW-70 chimeric rabbit-human IgG1 LA/LA/PG (antibody, V domains shown, Fc-silenced (L234A/L235A/P329G) IgG1, lambda; Alexa Fluor 647-labeled in single-step flow cytometry; Cluster C-1) VH: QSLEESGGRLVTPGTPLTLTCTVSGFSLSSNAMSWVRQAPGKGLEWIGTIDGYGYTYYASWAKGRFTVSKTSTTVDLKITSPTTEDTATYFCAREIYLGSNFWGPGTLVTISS VL: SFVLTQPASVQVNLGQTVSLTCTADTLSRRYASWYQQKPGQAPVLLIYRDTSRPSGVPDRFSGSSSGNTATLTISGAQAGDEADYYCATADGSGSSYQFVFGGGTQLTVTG: 97.4
2) HW-25 chimeric rabbit-human IgG1 LA/LA/PG (antibody, V domains shown, Fc-silenced (L234A/L235A/P329G) IgG1, lambda; Alexa Fluor 647-labeled in single-step flow cytometry; Cluster C-1) VH: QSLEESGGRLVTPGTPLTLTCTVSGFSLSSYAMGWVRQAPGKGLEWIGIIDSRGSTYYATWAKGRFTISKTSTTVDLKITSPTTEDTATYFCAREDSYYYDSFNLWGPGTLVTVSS VL: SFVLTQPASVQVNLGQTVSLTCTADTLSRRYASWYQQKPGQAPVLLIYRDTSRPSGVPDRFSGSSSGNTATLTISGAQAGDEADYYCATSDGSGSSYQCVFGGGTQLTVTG: 97.2
3) HW-17 chimeric rabbit-human IgG1 LA/LA/PG (antibody, V domains shown, Fc-silenced (L234A/L235A/P329G) IgG1, lambda; Alexa Fluor 647-labeled in single-step flow cytometry; Cluster C-1) VH: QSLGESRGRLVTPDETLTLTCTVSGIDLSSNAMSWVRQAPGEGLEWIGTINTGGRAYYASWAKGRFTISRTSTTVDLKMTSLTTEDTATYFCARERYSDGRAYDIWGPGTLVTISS VL: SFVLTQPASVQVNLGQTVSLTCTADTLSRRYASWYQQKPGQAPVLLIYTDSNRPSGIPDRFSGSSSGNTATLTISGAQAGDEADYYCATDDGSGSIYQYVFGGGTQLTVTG: 98.4
4) HW-42 chimeric rabbit-human IgG1 LA/LA/PG (antibody, V domains shown, Fc-silenced (L234A/L235A/P329G) IgG1, lambda; Alexa Fluor 647-labeled in single-step flow cytometry; Cluster C-1) VH: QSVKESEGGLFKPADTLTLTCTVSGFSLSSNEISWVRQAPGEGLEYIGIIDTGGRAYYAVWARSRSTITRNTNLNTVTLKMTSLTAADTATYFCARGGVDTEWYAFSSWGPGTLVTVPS VL: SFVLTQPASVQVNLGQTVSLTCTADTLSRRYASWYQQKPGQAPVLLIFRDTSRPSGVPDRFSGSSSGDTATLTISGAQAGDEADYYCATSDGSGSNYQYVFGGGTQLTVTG: 96.9
